tested_target: T1, human PD-1 expressed on cells (human, UniProt Q15116 25-288)
T1 construct: whole, on cells; also called hPD-1; 293 cell line stably expressing human PD-1
T1 sequence (Q15116 25-288): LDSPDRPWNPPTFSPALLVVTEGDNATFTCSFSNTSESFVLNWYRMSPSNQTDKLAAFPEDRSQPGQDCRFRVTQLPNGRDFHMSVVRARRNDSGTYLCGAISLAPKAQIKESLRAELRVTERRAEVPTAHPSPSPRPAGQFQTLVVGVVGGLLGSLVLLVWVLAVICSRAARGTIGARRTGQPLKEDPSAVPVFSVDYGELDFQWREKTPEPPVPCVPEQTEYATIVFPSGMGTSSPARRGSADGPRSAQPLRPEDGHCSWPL
test_protocol: flow cytometry on activated hCD8 T cells from human blood, 2nd-hIgG-PE detection; 2nd-hIgG-PE alone 1.73
measure: percent of cells in the positive quadrant

- binder: "T14-02 (antibody, V domains shown) VH: EVQLVESGGGLVQPGGSLRLSCAASGFVFSNYDMSWVRQAPGKGLEWVAYITIGGGTTYYPDTVKGRFTISRDNAKNSLYLQMNSLRAEDTAVYYCARWVYDPLYAMDYWGQGTTVTVSS VL: DIVLTQTPLSLSVTPGQPASISCRASESVDNYGISFMNWFLQKPGQPPQLLIYAASNQGSGVPDRFSGSGSGTDFTLKISRVEAEDVGVYYCQQSEEVPWTFGQGTKVEIK"
  experimental_result: "11.8%"

Measured values drawn from patent US20250270320A1 for this set.
